Ref: patent US20240115682A1

target-or-test-system: human PD-L1 / human PD-1 interaction (Homo sapiens (Human))
Sequence (Q9NZQ7 19-239): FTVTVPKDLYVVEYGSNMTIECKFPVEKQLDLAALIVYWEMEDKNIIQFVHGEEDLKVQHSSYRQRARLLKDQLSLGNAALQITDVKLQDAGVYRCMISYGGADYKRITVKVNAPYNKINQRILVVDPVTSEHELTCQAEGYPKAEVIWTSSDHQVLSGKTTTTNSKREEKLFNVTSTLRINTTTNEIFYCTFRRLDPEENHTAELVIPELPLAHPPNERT
experiment-summary: PD-1/PD-L1 binding ELISA
condition-set: average from multiple assays; read-out: average IC50, inhibition of direct interaction of PD-L1 to PD-1
outcome-measure: IC50
I'd appreciate it if you included the unit after the number.

Given the entry COc1nc(-c2cccc(-c3cccc(NC(=O)c4cn(C)c(=O)n(C)c4=O)c3Cl)c2Cl)ccc1CNC[C@@H]1CCC(=O)N1 [Compound 2.002] , report its measured IC50.
0.4 nM

Given the entry COc1nc(-c2cccc(-c3cccc(NC(=O)c4cn(C)c(=O)n(C)c4=O)c3C)c2Cl)ccc1CNC[C@@H]1CCC(=O)N1 [Compound 2.001] , report its measured IC50.
0.3 nM
